# Tested on: B16-F10 cells
# Assay Comment: Cell proliferation assay (CellTiter-Glo) in IFN-gamma treated B16-F10 cells
# Type: cell-based
# Experimental Setup: 120 h, mouse IFN-gamma 10 ng/mL, read-out: PTPN2 Prolif 5d B16F10 EC50
Measured Quantity: pEC50
Lab note: report pEC50 as minus log10 of the concentration in molar units, number only.

Sample records with pEC50:
Problem: # input compound: CS(=O)(=O)N1CCC[C@H](NCc2cc(O)c(N3CC(=O)NS3(=O)=O)c(F)c2)C1 ; wanted: its pEC50
Solution: 5.66

Problem: # input compound: CN(Cc1cc(O)c(N2CC(=O)NS2(=O)=O)c(F)c1)C1CCCCC1 ; wanted: its pEC50
Solution: 5.36

Alright, here's another compound for you.
Problem: # input compound: CC(C)CCN1CCC[C@@H](NCc2cc(O)c(N3CC(=O)NS3(=O)=O)c(F)c2)C1 ; wanted: its pEC50
Solution: 4.84

* * *

// reported pEC50 for each item listed
# Test system: B16-F10 cells
# Assay Comment: Cell proliferation assay (CellTiter-Glo) in IFN-gamma treated B16-F10 cells
# Format: cell-based
# Experimental Setup: 120 h, mouse IFN-gamma 10 ng/mL, read-out: PTPN2 Prolif 5d B16F10 EC50
Lab note: report pEC50 as minus log10 of the concentration in molar units, number only.

Problem: # input compound: O=C1CN(c2c(O)cc(-c3ccc(O)nc3)cc2F)S(=O)(=O)N1 [EXAMPLE 26] ; wanted: its pEC50
Solution: 5.51

Problem: # input compound: O=C1CN(c2c(O)cc(CN[C@@H]3CCCNC3)cc2F)S(=O)(=O)N1 [EXAMPLE 61] ; wanted: its pEC50
Solution: 5.59

* * *

# System: B16-F10 cells
# Assay Comment: Cell proliferation assay (CellTiter-Glo) in IFN-gamma treated B16-F10 cells
# Type: cell-based
# Experimental Setup: 120 h, mouse IFN-gamma 10 ng/mL, read-out: PTPN2 Prolif 5d B16F10 EC50
Measured Quantity: EC50

Sample records with EC50:
Problem: # input compound: COCCN1CCN(c2cc(O)c(N3CC(=O)NS3(=O)=O)c(F)c2)CC1 ; wanted: its EC50
Solution: ≥ 15 µM

Problem: # input compound: CC(C)Cc1ccc(-c2cc(O)c(N3CC(=O)NS3(=O)=O)c(F)c2)cc1 ; wanted: its EC50
Solution: ≥ 15 µM

Alright, here's another compound for you.
Problem: # input compound: O=C1CN(c2c(O)cc(-c3ccnc(-c4ccccc4)c3)cc2F)S(=O)(=O)N1 ; wanted: its EC50
Solution: ≥ 15 µM

All figures here come from patent US12162848B2.
